# credit: paper PMC7529893

# test system: MAGE-A11:PCF11 interaction (GST-MAGE-A11 and FAM-PCF11_4) (Homo sapiens, UniProt P43364)
# Construct: GST-MAGE-A11 MHD (human MAGE-A11 MHD amino acid 218-429); made in house; host or cells: E. coli BL21(DE3)
# method summary: TR-FRET primary / single point screen at 15 µM
# Format: binding
# condition parameters: single point TR-FRET screening of 797 quinoline compounds against MAGE-A11:PCF11
metric: percent inhibition (TR-FRET)
Number only, please.

Below are worked cases with known answers.
{"compound": "O=C(O)c1ccccc1CN(CCCCNc1ccnc2cc(Cl)ccc12)Cc1ccccc1 [SJ000361203]", "percent inhibition (TR-FRET)": 4.099}
{"compound": "COc1ccc(N2CCN(c3c(S(=O)(=O)c4ccc(C)c(C)c4)cnc4ccc(F)cc34)CC2)cc1 [SJ000117073]", "percent inhibition (TR-FRET)": -13.2577}

Now consider a different compound.
INPUT: Could you tell me which percent inhibition (TR-FRET) is on file for CCOc1ccc2ncc(S(=O)(=O)c3ccc(C)c(C)c3)c(N3CCN(CC)CC3)c2c1 [SJ000247355] ?
OUTPUT: -13.3902

====

# test system: MAGE-A11:PCF11 interaction (GST-MAGE-A11 and FAM-PCF11_4) (Homo sapiens, UniProt P43364)
# Construct: GST-MAGE-A11 MHD (human MAGE-A11 MHD amino acid 218-429); made in house; host or cells: E. coli BL21(DE3)
# Sequence (P43364 218-429): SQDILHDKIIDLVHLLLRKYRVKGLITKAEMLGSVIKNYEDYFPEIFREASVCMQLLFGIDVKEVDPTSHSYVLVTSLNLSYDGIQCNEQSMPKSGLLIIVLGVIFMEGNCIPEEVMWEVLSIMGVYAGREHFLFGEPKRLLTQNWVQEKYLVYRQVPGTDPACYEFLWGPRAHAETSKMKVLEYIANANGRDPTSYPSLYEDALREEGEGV
# method summary: TR-FRET primary / single point screen at 15 µM
# Format: binding
# condition parameters: single point TR-FRET screening of quinoline compounds against MAGE-A11:PCF11; 15 µM
Here the recorded percent inhibition (TR-FRET) is given for each entry.
Number only, please.

Below are worked cases with known answers.
{"compound": "CCOC(=O)c1cnc2ccc(OC)cc2c1NCCCN1CCOCC1", "percent inhibition (TR-FRET)": 2.945}
{"compound": "CCCN(CCCNc1ccnc2cc(C(F)(F)F)ccc12)CCC(C)(C)C", "percent inhibition (TR-FRET)": 32.3298}
{"compound": "CCCN(CCCNc1ccnc2cc(C(F)(F)F)ccc12)Cc1ccccc1", "percent inhibition (TR-FRET)": 28.8195}
{"compound": "CCCCN(CCC)CCCNc1ccnc2cc(C(F)(F)F)ccc12", "percent inhibition (TR-FRET)": 23.5778}
{"compound": "Cc1ccsc1CN(CCCNc1ccnc2cc(Cl)ccc12)Cc1ccccc1", "percent inhibition (TR-FRET)": 10.905}
{"compound": "CCCN(CCCNc1c2ccc(Cl)cc2nc2ccc(OC)cc12)Cc1cc2ccccc2nc1Cl", "percent inhibition (TR-FRET)": -83.7446}
{"compound": "CCCN(CCCNc1ccnc2cc(C(F)(F)F)ccc12)Cc1ccccc1F", "percent inhibition (TR-FRET)": 19.2187}
{"compound": "CCCN(CCCNc1ccnc2cc(Cl)ccc12)CC(C)C", "percent inhibition (TR-FRET)": 11.4525}
{"compound": "COc1ccccc1Oc1ccc2c(NCCCNCc3ccco3)ccnc2c1", "percent inhibition (TR-FRET)": 24.558}
{"compound": "CCOC(=O)c1cnc2ccc(F)cc2c1NCCCN1CCOCC1", "percent inhibition (TR-FRET)": -0.3915}

INPUT: Could you tell me which percent inhibition (TR-FRET) is on file for `CCCN(CCCNc1ccnc2cc(C(F)(F)F)ccc12)Cc1ccc(F)cc1` ?
OUTPUT: 26.4363

INPUT: Another compound to look at: `Clc1ccc2c(NCCCN(Cc3ccccc3)Cc3ccc4c(c3)OCO4)ccnc2c1`
OUTPUT: 9.001
